system: Bacillus subtilis (Bs); test: MIC in nutrient agar, Bacillus subtilis; type: cell-based, Bacillus subtilis ATCC 8473; conditions: Bacillus subtilis, pH 6.8, read-out: Minimum Inhibitory Concentration, Bs
In this section, each of the compounds is paired with its reported MIC.
ENDPOINT NAME: MIC

INSERT INTO assay_data (mol_smiles, value_observed) VALUES
  ('CSC=C(Cl)C#N', '75 µg/mL'),
  ('N#CC#CSC1CCCC1', '100 µg/mL'),
  ('CS/C=C(\Cl)C#N', '50 µg/mL'),
  ('CS/C=C(/Cl)C#N', '> 500 µg/mL');

###

Listing: MIC of selected compounds
tested on: Saccharomyces cerevisiae (Sc); assay: MIC in malt yeast agar, Saccharomyces cerevisiae; assay type: cell-based, Saccharomyces cerevisiae ATCC 4105; conditions: malt yeast agar, read-out: Minimum Inhibitory Concentration, Sc
ENDPOINT NAME: MIC

INSERT INTO measurements (compound, endpoint_name, value_observed) VALUES
  ('CSC#CC#N [Compound A, 3-methylthio-2-propynenitrile]', 'MIC', '0.5 µg/mL'),
  ('CCCCCCCCCCCCSC#CC#N [F, 3-dodecylthio-2-propynenitrile]', 'MIC', '> 500 µg/mL'),
  ('N#CC#CSc1ccc(Cl)cc1 [D, 3-(4-chlorophenylthio)-2-propynenitrile]', 'MIC', '< 1 µg/mL'),
  ('CCSC#CC#N [B, 3-ethylthio-2-propynenitrile]', 'MIC', '< 1 µg/mL');
